Tested on: 242566-281-R-J2-PDC complex spheroid viability
Measurement Protocol: Anticancer human tumor 242566-281-R-J2-PDC patient-derived pancreatic carcinoma cell line growth inhibition [RAS]
Test Settings: second compound 0.0316 µM; first compound 0.00316 µM; active compounds read low
Property: viability, T/C

// viability, T/C value for C=CC(=O)N1CCN(c2nc(OCC3CCCN3C)nc3c(F)c(-c4nc(N)cc(C)c4C(F)(F)F)c(Cl)cc23)C(C)C1 (stereo not drawn) + C#Cc1c(F)ccc2cc(O)cc(-c3ncc4c(N5CC6CCC(C5)N6)nc(OCC56CCCN5CC(F)C6)nc4c3F)c12 : 95.7%

// viability, T/C value for CC(C)n1nc(-c2ccc3oc(N)nc3c2)c2c(N)ncnc21 + C=CC(=O)N1CCN(c2nc(OCC3CCCN3C)nc3c(F)c(-c4nc(N)cc(C)c4C(F)(F)F)c(Cl)cc23)C(C)C1 : 83.4%

// viability, T/C value for Nc1ccn(C2OC(CO)C(O)C2(F)F)c(=O)n1 (stereo not drawn) + C#Cc1c(F)ccc2cc(O)cc(-c3ncc4c(N5CC6CCC(C5)N6)nc(OCC56CCCN5CC(F)C6)nc4c3F)c12 : 84.9%

----------
Tested on: 242566-281-R-J2-PDC complex spheroid viability
Measurement Protocol: Anticancer human tumor 242566-281-R-J2-PDC cell line growth inhibition [RAS]; active means viability on the fitted dose curve at most 10% of control; inactive means the rest;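 further: spheroids exposed to compound for 7 days before readout; 100% = DMSO vehicle control wells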
Test Settings: second compound 10 µM; first compound 10 µM
Field 'call' accepts active, inactive

Inquiry: Hi, do you know how NC1c2ccccc2OC12CCN(c1cnc3c(N4CCCc5ncccc54)n[nH]c3n1)CC2 (stereo not given) + C#Cc1c(F)ccc2cc(O)cc(-c3ncc4c(N5CC6CCC(C5)N6)nc(OCC56CCCN5CC(F)C6)nc4c3F)c12 came out in this test?
Reply text: inactive

Inquiry: Hi, do you know how CC(=O)OC12COC1CC(O)C1(C)C(=O)C(O)C3=C(C)C(OC(=O)C(O)C(NC(=O)OC(C)(C)C)c4ccccc4)CC(O)(C(OC(=O)c4ccccc4)C21)C3(C)C (stereo not given) + C#Cc1c(F)ccc2cc(O)cc(-c3ncc4c(N5CC6CCC(C5)N6)nc(OCC56CCCN5CC(F)C6)nc4c3F)c12 came out in this test?
Reply text: inactive

Inquiry: Hi, do you know how Cc1nc(N2CCC3(CC2)COC(C)C3N)c(CO)nc1Sc1ccnc(N)c1Cl (stereo not given) + C#Cc1c(F)ccc2cc(O)cc(-c3ncc4c(N5CC6CCC(C5)N6)nc(OCC56CCCN5CC(F)C6)nc4c3F)c12 came out in this test?
Reply text: inactive

Inquiry: Hi, do you know how CCC(CC)c1cc(NC2CCC(N)C2)n2nccc2n1 (stereo not given) + C#Cc1c(F)ccc2cc(O)cc(-c3ncc4c(N5CC6CCC(C5)N6)nc(OCC56CCCN5CC(F)C6)nc4c3F)c12 came out in this test?
Reply text: active

Inquiry: Hi, do you know how C[C@@H](NC(=O)c1ncnc(N)c1Cl)c1ncc(C(=O)Nc2cc(C(F)(F)F)c(Cl)cn2)s1 + C#Cc1c(F)ccc2cc(O)cc(-c3ncc4c(N5CC6CCC(C5)N6)nc(OCC56CCCN5CC(F)C6)nc4c3F)c12 came out in this test?
Reply text: inactive

----------
Tested on: 242566-281-R-J2-PDC complex spheroid viability
Measurement Protocol: Anticancer human tumor 242566-281-R-J2-PDC cell line growth inhibition [RAS];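 further: spheroids exposed to compound for 7 days before readout; 100% = DMSO vehicle control wells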
Test Settings: compound 0.1 µM; active compounds read low
Assign viability, T/C to each entry below.

// viability, T/C value for C=CC(=O)Nc1cc(Nc2nccc(-c3cn(C)c4ccccc34)n2)c(OC)cc1N(C)CCN(C)C : 91.2% [middle of 4 runs]

// viability, T/C value for O=C(c1ccc(F)c(F)c1Nc1ccc(I)cc1F)N1CC(O)([C@@H]2CCCCN2)C1 : 64.1% [middle of 4 runs]

// viability, T/C value for CC(C)NCC(C(=O)N1CCN(c2ncnc3c2C(C)CC3O)CC1)c1ccc(Cl)cc1 (stereo not given) : 106% [middle of 4 runs]

// viability, T/C value for C#Cc1c(F)ccc2cc(O)cc(-c3ncc4c(N5CC6CCC(C5)N6)nc(OCC56CCCN5CC(F)C6)nc4c3F)c12 (stereo not given) : 80.2% [middle of 8 runs]

// viability, T/C value for CCN1CCN(Cc2ccc(Nc3ncc(F)c(-c4cc(F)c5nc(C)n(C(C)C)c5c4)n3)nc2)CC1 : 99.1% [middle of 4 runs]
